Tested on: Wolbachia pipientis
Experiment: Anti-Wolbachia Cell-Based Screen
Format: functional
Parameters: scale not given: in the data most compounds retested in dose-response had high values
Settings: 5 µM
Out of some 48,000 compounds screened, about 13,000 (27%) showed an effect of 50% or more. Some of the results follow.
Record form. Attribute: Percent Effect. Fill in for each entry.
Note: unit % is implicit; provide only the numeric part.

*Q* Reported Percent Effect, compound Cc1cc(C)c2c(N(C)CC3CCOC3)ncnc2n1 (stereo unspecified) : ____
*A* 14.02

*Q* Reported Percent Effect, compound Cc1ccnc(C(NC(=O)c2ncoc2C)C2CC2)n1 (stereo unspecified) : ____
*A* -4.451

*Q* Reported Percent Effect, compound CN(C)CCN1CC(C(=O)N2CCC(c3cc(=O)[nH]cn3)CC2)CC1=O (stereo unspecified) : ____
*A* 11.42

*Q* Reported Percent Effect, compound COc1ccc(C(=O)N2CCCCC2Cn2cccn2)c(F)c1 (stereo unspecified) : ____
*A* 4.231

*Q* Reported Percent Effect, compound Cc1cnn(CC2CCCN2C(=O)c2ccc(F)cc2Cl)c1 (stereo unspecified) : ____
*A* 118

*Q* Reported Percent Effect, compound Cc1cc(C2CCCN2C(=O)c2cc3c(s2)CCC3)on1 (stereo unspecified) : ____
*A* 4.731

*Q* Reported Percent Effect, compound CCN1CCN(C(=O)CCc2c(C)noc2Cl)CC1 : ____
*A* 3.416

*Q* Reported Percent Effect, compound CN1CCN(C(=O)Cn2nc(C(F)(F)F)c(Br)c2C2CC2)CC1 : ____
*A* 120.3

*Q* Reported Percent Effect, compound Cc1cc(C(=O)NC(C)c2nnn[nH]2)c2cccc(C)c2n1 (stereo unspecified) : ____
*A* 0.7589

*Q* Reported Percent Effect, compound CCN(CC)S(=O)(=O)N1C[C@@H]2CC[C@H](C1)N(Cc1cscn1)C2=O : ____
*A* -30.66

*Q* Reported Percent Effect, compound CCN1CCN(C(=O)Cn2nc(C(F)(F)F)c(Br)c2C2CC2)CC1 : ____
*A* 81.51

*Q* Reported Percent Effect, compound O=C(c1ccccc1N1CCOCC1)N1CCCC1Cn1cccn1 (stereo unspecified) : ____
*A* -6.576

*Q* Reported Percent Effect, compound CN(CC1(CO)CCC1)C(=O)C1CCC(=O)N(Cc2ccc(Cl)cc2)C1 (stereo unspecified) : ____
*A* 0.1062

*Q* Reported Percent Effect, compound CCn1cc(CN2CCCN(C(=O)c3ccccc3OC)CC2)cn1 : ____
*A* 106.4

*Q* Reported Percent Effect, compound CCc1noc(C(C)N2CCCN(Cc3noc(C4CC4)n3)CC2)n1 (stereo unspecified) : ____
*A* 8.614

*Q* Reported Percent Effect, compound CC(C)(CNC(=O)OC(C)(C)C)NC(=O)C1CC(=O)N(C2CC2)C1 (stereo unspecified) : ____
*A* 10.96

*Q* Reported Percent Effect, compound Cc1nn(C)c(C)c1CCC(=O)N1CCN(CCn2cncn2)CC1 : ____
*A* 2.467

*Q* Reported Percent Effect, compound CCCc1nc(CN2CCN(Cc3noc(CCC)n3)CC2)no1 : ____
*A* 0.9498

*Q* Reported Percent Effect, compound O=c1[nH]c(NCc2cccc(OC(F)F)c2)nc2c1CCNC2 : ____
*A* -5.963

*Q* Reported Percent Effect, compound CCOCC(=O)N1Cc2nccn2CC(CN2CCCC2)C1.O=C(O)C(F)(F)F (stereo unspecified) : ____
*A* -4.064

*Q* Reported Percent Effect, compound Cc1cc(CN(C)C(=O)CN2CC3(CCNCC3)OC2=O)n(C)n1 : ____
*A* -5.459

*Q* Reported Percent Effect, compound CN(C)c1cc2c(nn1)CCN(C(=O)c1cc3c(s1)CCC3)C2 : ____
*A* 9.509

*Q* Reported Percent Effect, compound CCCN1CCN(C(=O)C(C)n2cc(Br)cn2)CC1 (stereo unspecified) : ____
*A* 6.17

*Q* Reported Percent Effect, compound NC(=O)C1CCCN(c2ncnc3c2Cc2ccccc2OC3)C1 (stereo unspecified) : ____
*A* 10.44

*Q* Reported Percent Effect, compound CCn1c(C2CCCN(C(=O)C(C)(C)OC)C2)nn(CCN(C)C)c1=O (stereo unspecified) : ____
*A* -8.02

*Q* Reported Percent Effect, compound Cc1cnn(CC2CCCN2C(=O)c2ccc(F)c(F)c2)c1 (stereo unspecified) : ____
*A* 123.6

*Q* Reported Percent Effect, compound CC(C)n1cnnc1CN(C)CC1CCOC1 (stereo unspecified) : ____
*A* -3.944

*Q* Reported Percent Effect, compound O=C(C1CC12CCC2)N1CCC(n2cc(-c3ccsc3)nn2)CC1 (stereo unspecified) : ____
*A* -51.66

*Q* Reported Percent Effect, compound CCCc1nc(CN2CCN(C(C)c3nc(C4CC4)no3)CC2)no1 (stereo unspecified) : ____
*A* 124.6

*Q* Reported Percent Effect, compound Cc1cc(NC(=O)N(CC2CCOC2)C2CC2)no1 (stereo unspecified) : ____
*A* -8.865

*Q* Reported Percent Effect, compound CCCN1CCN(C(=O)Cn2nc(C(F)(F)F)c(Br)c2C2CC2)CC1 : ____
*A* 112.9

*Q* Reported Percent Effect, compound Cc1cc(C2CCCN(C(=O)CN3CCN(C)CC3)C2)n[nH]1 (stereo unspecified) : ____
*A* 0.3099

*Q* Reported Percent Effect, compound O=C1NCCO[C@H]2CN(C(=O)CC3Cc4ccccc4C3)CC[C@@H]12 : ____
*A* -17.08

*Q* Reported Percent Effect, compound CCc1nc(CN2CCN(C(C)c3nc(C4CC4)no3)CC2)no1 (stereo unspecified) : ____
*A* 112.7

*Q* Reported Percent Effect, compound COc1ccc(CC(=O)N2Cc3nccn3CC(CN(C)C)C2)cc1.O=C(O)C(F)(F)F (stereo unspecified) : ____
*A* 100.3

*Q* Reported Percent Effect, compound Cc1nc2c(c(NC(C)c3nnn[nH]3)n1)Cc1ccccc1OC2 (stereo unspecified) : ____
*A* 97.46
